Reported Pyruvate (mM) generated by item:
Tested on: D-amino acid transaminase
Assay: Substrate specificity of purified D-amino acid transaminase toward keto acids (amino acceptors)
Format: biochemical, Bacillus sphaericus
Details: amino acceptor 20 mM, D-alanine 20 mM as amino donor, 0.1 U/ml enzyme, 50 mM potassium phosphate pH 7, 37° C., 10 min
State just the number; it will be interpreted in mM.

Answered examples (5):
CCCCC(=O)C(=O)O [2-Ketohexanoate]; 0.531
O=C(O)C(=O)CO [β-Hydroxypyruvate]; 0.079
CCCC(=O)C(=O)O [2-Oxopentanoate]; 0.882
O=C(O)C(=O)CF [Fluoropyruvate]; 0.053
CC(C)C(=O)C(=O)O [3-Methyl-2-oxobutyrate]; 0.014

// switching to the query compound
Item O=CC(=O)Oc1ccccc1 [Phenyl glyoxylate] has what recorded Pyruvate (mM) generated?
0.000
